Where these numbers come from: patent US11266675B2

# Test system: RD cells
# Experimental details: Cell viability assay (MTT)
# Type: cell-based, Human
# Condition details: serial dilution of Ver-155008 for 24 hours, read-out: Cytotoxity CC90
Measure name: CC90 (µM)
Field format: number, assumed µM, no unit text.

# return recorded CC90 for input N#Cc1ccc(COC[C@H]2O[C@@H](n3c(NCc4ccc(Cl)c(Cl)c4)nc4c(N)ncnc43)[C@H](O)[C@@H]2O)cc1 91.9
